Where these numbers come from: patent US9085527B2

Tested on: TNFα secretion in RAW 264.7 macrophages
Assay: TNFα release assay in RAW 264.7 macrophages stimulated with LPS
Format: cell-based, mouse
Details: 10 ng/mL LPS, 3 hours, TNFα ELISA, read-out: TNFα Secrection, IC50 μM
Outcome Measure: IC50

>>> data_value("CC/C=C\\C/C=C\\C/C=C\\C/C=C\\C/C=C\\C/C=C\\CCC(=O)Nc1ccc(O)c(C(=O)O)c1")
"146 µM"
